# system name: Adenosine receptor A3 (Homo sapiens)
# Sequence (P0DMS8 whole entry): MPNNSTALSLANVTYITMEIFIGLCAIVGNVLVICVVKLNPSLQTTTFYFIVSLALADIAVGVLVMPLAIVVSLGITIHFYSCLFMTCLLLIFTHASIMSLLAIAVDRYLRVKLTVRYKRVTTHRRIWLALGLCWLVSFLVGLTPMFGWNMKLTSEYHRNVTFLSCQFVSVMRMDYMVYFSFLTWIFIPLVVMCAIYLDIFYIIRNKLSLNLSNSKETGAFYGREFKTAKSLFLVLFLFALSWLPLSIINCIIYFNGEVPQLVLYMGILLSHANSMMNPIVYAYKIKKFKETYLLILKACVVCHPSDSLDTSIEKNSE
# measurement notes: Displacement of [125I]AB-MECA from human recombinant adenosine A3 receptor expressed in CHO cells
# Type: cell-based
metric name: pKi
When answering, recall that pKi equals minus log10 of the concentration in mol/L, and write that number alone.

Data request: Report pKi for Cn1c(=O)c2[nH]c(-c3ccc(S(=O)(=O)O)cc3)nc2n(C)c1=O tested on Adenosine receptor A3 (Homo sapiens).
Data returned: 5.23

====

pKi reference
# system name: Adenosine receptor A3 (Homo sapiens)
# measurement notes: Displacement of [3H]PSB11 from human recombinant adenosine A3 receptor expressed in CHO cells
# Type: cell-based
pKi: −log10 of the molar value.

Use the examples below as a reference point.
CCCn1c(=O)[nH]c2[nH]c(-c3ccc(S(=O)(=O)NCCO)cc3)nc2c1=O | ≤ 5.00
CCCN(CCC)S(=O)(=O)c1ccc(-c2nc3[nH]c(=O)n(CCC)c(=O)c3[nH]2)cc1 | < 6.00
CCCn1c(=O)[nH]c2[nH]c(-c3ccc(S(=O)(=O)Nc4ccccc4)cc3)nc2c1=O | ≤ 6.00
CCCn1c(=O)[nH]c2nc(-c3ccc(S(=O)(=O)N4CCN(Cc5ccccc5)CC4)cc3)[nH]c2c1=O | < 6.00

Data request: Lab request: please report pKi under test system Adenosine receptor A3 (Homo sapiens) for Cn1c(=O)c2[nH]c(-c3ccc(S(=O)(=O)NCCc4ccccc4)cc3)nc2n(C)c1=O
Data returned: 5.97

Data request: // query: Cn1c(=O)c2nc(-c3ccc(S(=O)(=O)NCC(=O)O)cc3)[nH]c2n(C)c1=O
Data returned: ≤ 5.00

Data request: Next entry: CCCn1c(=O)[nH]c2nc(-c3ccc(S(=O)(=O)O)cc3)[nH]c2c1=O
Data returned: < 5.00

Data request: Next: CCCn1c(=O)[nH]c2[nH]c(-c3ccc(S(=O)(=O)NCCc4ccccc4)cc3)nc2c1=O
Data returned: ≤ 5.00

Data request: Also CCCCNS(=O)(=O)c1ccc(-c2nc3c([nH]2)c(=O)n(C)c(=O)n3C)cc1 , if possible.
Data returned: ≤ 5.00

====

# Ki annotations
# system name: Adenosine receptor A2a (Homo sapiens, UniProt P29274)
# Sequence (P29274 whole entry): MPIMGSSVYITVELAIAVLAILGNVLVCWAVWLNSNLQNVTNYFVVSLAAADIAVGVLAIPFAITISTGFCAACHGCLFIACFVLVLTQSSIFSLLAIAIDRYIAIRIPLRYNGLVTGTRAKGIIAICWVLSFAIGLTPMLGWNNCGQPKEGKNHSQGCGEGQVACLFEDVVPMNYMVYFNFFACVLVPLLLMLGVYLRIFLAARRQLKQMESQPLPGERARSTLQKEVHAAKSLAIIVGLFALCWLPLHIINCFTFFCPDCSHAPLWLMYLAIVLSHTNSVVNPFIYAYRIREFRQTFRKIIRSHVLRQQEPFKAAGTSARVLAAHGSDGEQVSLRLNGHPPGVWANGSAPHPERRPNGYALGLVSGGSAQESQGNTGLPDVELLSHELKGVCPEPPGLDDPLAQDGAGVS
# measurement notes: Displacement of [3H]MSX2 from human recombinant adenosine A2A receptor expressed in CHO cells
Respond with a number, then the unit of measure.

Answered examples (3):
CCCn1c(=O)[nH]c2[nH]c(-c3ccc(S(=O)(=O)NCCc4ccccc4)cc3)nc2c1=O | 769 nM
Cn1c(=O)c2[nH]c(-c3ccc(S(=O)(=O)NCCc4ccccc4)cc3)nc2n(C)c1=O | 32.6 nM
CCCn1c(=O)[nH]c2[nH]c(-c3ccc(S(=O)(=O)NCc4ccccc4)cc3)nc2c1=O | 162 nM

Would you kindly look at the next entry?
Data request: I'd like to know its Ki. The compound in question is CCCn1c(=O)[nH]c2nc(-c3ccc(S(=O)(=O)N4CCN(Cc5ccccc5)CC4)cc3)[nH]c2c1=O
Data returned: 484 nM

====

Reported values of Ki for individual entries
# system name: Adenosine receptor A1 (Homo sapiens, UniProt P30542)
# Sequence (P30542 whole entry): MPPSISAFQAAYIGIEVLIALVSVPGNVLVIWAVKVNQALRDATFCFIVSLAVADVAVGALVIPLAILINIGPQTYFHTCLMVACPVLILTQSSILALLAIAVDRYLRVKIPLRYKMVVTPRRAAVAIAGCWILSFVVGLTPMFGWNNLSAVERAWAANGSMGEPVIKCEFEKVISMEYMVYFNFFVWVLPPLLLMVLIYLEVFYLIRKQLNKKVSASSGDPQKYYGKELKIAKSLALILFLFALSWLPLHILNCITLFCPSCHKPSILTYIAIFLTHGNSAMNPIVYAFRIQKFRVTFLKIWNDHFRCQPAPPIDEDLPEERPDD
# measurement notes: Displacement of [3H]CCPA from human recombinant adenosine A1 receptor expressed in CHO cells
Dear colleague, please return just the value in nM, with no unit written.

CCCn1c(=O)[nH]c2nc(-c3ccc(S(=O)(=O)N4CCN(Cc5ccccc5)CC4)cc3)[nH]c2c1=O | 2070
Cn1c(=O)c2[nH]c(-c3ccc(S(=O)(=O)NCCc4ccccc4)cc3)nc2n(C)c1=O | 185
CCCn1c(=O)[nH]c2[nH]c(-c3ccc(S(=O)(=O)NCc4ccccc4)cc3)nc2c1=O | 54.8

Data request: Value lookup for Ki; key = CCCn1c(=O)[nH]c2[nH]c(-c3ccc(S(=O)(=O)NCCc4ccccc4)cc3)nc2c1=O
Data returned: 183
